- Test system: Puccinia triticina
- experiment-summary: Wheat Brown Rust (PUCCRT) fungicidal activity
- Type: in vivo
- assay-setup: 24 h, Low Volume (121.5 g/H), 1 Day Protectant, read-out: PUCCRT 1DP disease control
Measured pest or weed control at 121.5 g/ha, listed per entry for reference.

mol=COc1ccnc(C(=O)N[C@H]2COCC[C@H](Cc3ccccc3)[C@@H](OCC(C)C)[C@H](C)OC2=O)c1OC(C)=O result="> 80%"
mol=CC[C@H]1CCOC[C@H](NC(=O)c2nccc(OC)c2OC(C)=O)C(=O)O[C@@H](C)[C@@H]1OC(=O)c1ccccc1 result="> 80%"

Asked: State the recorded pest or weed control at 121.5 g/ha for this entry: CCCO[C@H]1COCC[C@H](NC(=O)c2nccc(OC)c2OCOC(C)=O)C(=O)O[C@@H](C)[C@@H]1Oc1ccccc1
Given back: > 80%

Asked: And for COc1ccnc(C(=O)N[C@H]2CCCC[C@H](Cc3ccccc3)[C@@H](Oc3ccccc3)[C@H](C)OC2=O)c1OC(C)=O ?
Given back: > 80%

Asked: Note, next up: COc1ccnc(C(=O)N[C@H]2CCCC[C@H](Oc3ccccc3)[C@@H](Oc3ccccc3)[C@H](C)OC2=O)c1OC(C)=O
Given back: > 80%

Asked: Thanks! And C=CCO[C@@H]1[C@@H](CC2CCCC2)CCCC[C@H](NC(=O)c2nccc(OC)c2OCOC(C)=O)C(=O)O[C@H]1C ?
Given back: < 80%

----------
- System: Puccinia triticina
- experiment-summary: Wheat Brown Rust (PUCCRT) fungicidal activity
- Assay type: in vivo
- assay-setup: 72 h, Low Volume (121.5 g/H), 3 Day Curative, read-out: PUCCRT 3DC disease control
// reported pest or weed control at 121.5 g/ha per item

Asked: Can you share its pest or weed control at 121.5 g/ha? I mean this compound: CCCO[C@H]1CCCC[C@H](NC(=O)c2nccc(OC)c2OC(C)=O)C(=O)O[C@@H](C)[C@@H]1Oc1ccccc1 [Compound 26]
Given back: > 80%

Asked: What about this compound? COc1ccnc(C(=O)N[C@H]2CCCC[C@@H]3OC(C)(C)O[C@H]3[C@H](C)OC2=O)c1OCOC(C)=O [Compound 33]
Given back: > 80%

Asked: Try this compound next: CCCCCO[C@H]1[C@H](C)OC(=O)[C@@H](NC(=O)c2nccc(OC)c2OCOC(C)=O)CCCC[C@@H]1OC(=O)c1ccccc1 [Compound 15]
Given back: < 80%

----------
- Test system: Puccinia triticina
- experiment-summary: Wheat Brown Rust (PUCCRT) fungicidal activity
- Format: in vivo
- assay-setup: 72 h, Low Volume (121.5 g/H), 3 Day Curative, read-out: PUCCRT 3DC disease control
observed-property: pest or weed control at 121.5 g/ha

mol=COc1ccnc(C(=O)N[C@H]2CCCC[C@H](CC3CCCC3)[C@@H](OC(=O)C(C)C)[C@H](C)OC2=O)c1OCOC(C)=O result="< 80%"
mol=COc1ccnc(C(=O)N[C@H]2CCOC[C@H](Oc3ccccc3)[C@@H](Oc3ccccc3)[C@H](C)OC2=O)c1OCOC(C)=O result="> 80%"
mol=COc1ccnc(C(=O)N[C@H]2CCCC[C@H](OCc3ccccc3)[C@@H](OCc3ccccc3)[C@H](C)OC2=O)c1OCOC(C)=O result="> 80%"
mol=COc1ccnc(C(=O)N[C@H]2CCCC[C@H](Cc3ccccc3)[C@@H](OCC(C)C)[C@H](C)OC2=O)c1OCOC(C)=O result="< 80%"

Asked: Using the record for COc1ccnc(C(=O)N[C@H]2CCOC[C@H](OCC(C)C)[C@@H](Oc3ccccc3)[C@H](C)OC2=O)c1OCOC(C)=O , report its pest or weed control at 121.5 g/ha.
Given back: > 80%

Asked: Request: COc1ccnc(C(=O)N[C@H]2COCC[C@H](Cc3ccc(F)cc3)[C@@H](Oc3ccccc3)[C@H](C)OC2=O)c1OCOC(=O)C(C)C
Given back: > 80%

Reference for the values: patent US20180002320A1
